- Tested on: Staphylococcus epidermidis 831 (MRSE)
- procedure-summary: MIC by broth microdilution, SE 831
- Format: cell-based
- test-settings: Staphylococcus epidermidis, MRSE, read-out: MIC SE 831

compound	MIC
CCCCCOCCNC(=O)Oc1cc(O)c2c(c1)[C@@H](C(=O)O)NC(=O)[C@H]1NC(=O)[C@H](NC(=O)[C@@H]3NC(=O)[C@H](CC(N)=O)NC(=O)[C@H](NC(=O)[C@@H](CC(C)C)NC)[C@H](O)c4ccc(c(Cl)c4)Oc4cc3cc(c4O[C@@H]3O[C@H](CO)[C@@H](O)[C@H](O)[C@H]3O[C@H]3C[C@](C)(N)[C@H](O)[C@H](C)O3)Oc3ccc(cc3Cl)[C@H]1O)c1ccc(O)c-2c1 (atropisomer, axis not shown) [Compound 348]	4 to 8 µg/mL
CNCCOc1ccc(CCNC(=O)Oc2cc(O)c3c(c2)[C@@H](C(=O)NC2C4CC5CC(C4)CC2C5)NC(=O)[C@H]2NC(=O)[C@H](NC(=O)[C@@H]4NC(=O)[C@H](CC(N)=O)NC(=O)[C@H](NC(=O)[C@@H](CC(C)C)NC)[C@H](O)c5ccc(c(Cl)c5)Oc5cc4cc(c5O[C@@H]4O[C@H](CO)[C@@H](O)[C@H](O)[C@H]4O[C@H]4C[C@](C)(N)[C@H](O)[C@H](C)O4)Oc4ccc(cc4Cl)[C@H]2O)c2ccc(O)c-3c2)cc1 (some centres unmarked) [Compound 335]	0.01 to 0.5 µg/mL

Attribution: patent US20110015119A1
